The origin of these recorded values is patent US4504481A.

Assay: acute oral toxicity
Conditions: in vivo; rat, single 500 mg./kg. oral dose, 14 days observation, n=10; read-out: Perished animals
observable: mortality at 336 h (%)
Hi! Could you send only the number? It should be in %, unit omitted.

{"compound": "CCC(O)(c1ccc(OCCCN2CCN(C(c3ccccc3)c3ccccc3)CC2)cc1)c1ccccc1OC (centres unmarked)", "mortality at 336 h / %": 0}

We now examine a further compound.
Query: Can you look up the measured mortality at 336 h of CCCC(C(=O)OCCN(CC)CC)(c1ccccc1)c1ccccc1 [Proadiphene, reference compound] for me?
Result: 90
